Tested on: HS 578T breast
Procedure summary: NCI tumour cell line growth inhibition, 48 h
Where a SMILES comes first, the peptide text is derived from it. [ ]: non-standard residue; d: D form. The star is where a group is joined. NMeAc5c = CNC1(C(=O)O)CCCC1; Boc = CC(C)(C)OC(=O)*; OBn = c1ccc(CO*)cc1

{"Molecule": "CN(C(=O)C(Cc1ccccc1)NC(=O)OC(C)(C)C)C1(C(=O)NC(Cc2ccccc2)C(=O)OCc2ccccc2)CCCC1 (stereo not drawn) (Boc-Phe-[NMeAc5c]-Phe-OBn; configuration not given here)", "TGI": "> 100 µM"}
{"Molecule": "Cc1cnc(NCCCN(C)C)c2c1[nH]c1ccc3cc(O)ccc3c12", "TGI": "2.22 µM"}
{"Molecule": "Nc1nc(Cl)cc(NCC2(CO)CC(=O)C2)n1", "TGI": "> 100 µM"}
{"Molecule": "O=C1CSC(c2ccc(Cl)cc2)N1c1ccc(Oc2ccc(Cl)cc2)c(Cl)c1 (centres undefined)", "TGI": "27.5 µM"}
{"Molecule": "O=c1ccc(-c2ccccc2)n[nH]1", "TGI": "> 100 µM"}
{"Molecule": "COc1cc2c(c(OC)c1OC)-c1ccc(NNC(N)=S)c(=O)cc1[C@@H](NC(C)=O)CC2", "TGI": "> 100 µM"}
{"Molecule": "C[C@@H]1CC[C@]2(C(=O)O)CC[C@]3(C)C(=CC[C@@H]4[C@@]5(C)CC[C@H](O)C(C)(C)[C@@H]5CC[C@]43C)[C@@H]2[C@]1(C)O", "TGI": "16.1 µM"}
{"Molecule": "O=c1[nH]c(Nc2cccc(CC(F)(F)F)c2)nc2nc[nH]c12", "TGI": "> 100 µM"}
{"Molecule": "C#CCNC(CS)C(=O)O (centres undefined)", "TGI": "> 100 µM"}
